biological target: Fuc(a1-2)Gal6S(b1-4)Glc; experiment: glycan array binding signal (z-score within array); higher = stronger binding; details: glycan notation: IUPAC condensed, linker removed
Shown is part of a subset that was picked to be rich in the strongest signals.
attribute measured: glycan array binding signal (z-score)
Answers are plain numbers.

AFL (Aspergillus fumigatus), Q4WW81 (protein) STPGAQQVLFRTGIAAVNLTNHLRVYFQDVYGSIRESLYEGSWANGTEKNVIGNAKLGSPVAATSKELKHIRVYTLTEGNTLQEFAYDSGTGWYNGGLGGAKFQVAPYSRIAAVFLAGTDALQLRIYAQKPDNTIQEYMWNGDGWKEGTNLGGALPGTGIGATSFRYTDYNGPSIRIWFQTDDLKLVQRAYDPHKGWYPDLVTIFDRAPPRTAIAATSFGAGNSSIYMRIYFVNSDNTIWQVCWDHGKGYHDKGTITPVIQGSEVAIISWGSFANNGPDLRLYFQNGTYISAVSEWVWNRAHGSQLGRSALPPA: 3.41

# evaluate next
Determine its reported glycan array binding signal (z-score): Clone730PsrP (Streptococcus pneumoniae) (protein) MDHHHHHHHHHHASENLYFQGAMVVGSQTAAATEATAKKVEEDRKKPASDYVASVTNVNLQSYAKRRKRSVDSIEQLLASIKNAAVFSGNTIVNGAPAINASLNIAKSETKVYTGEGVDSVYRVPIYYKLKVTNDGSKLTFTYTVTYVNPKTNDLGNISSMRPGYSIYNSGTSTQTMLTLGSDLGKPSGVKNYITDKNGRQVLSYNTSTMTTQGSGYTWGNGAQMNGFFAKKGYGLTSSWTVPITGTDTSFTFTPYAARTDRIGINYFNGGGKVVESSTT
-0.11
